target: UniProt:P11708
Sequence (P11708 whole entry): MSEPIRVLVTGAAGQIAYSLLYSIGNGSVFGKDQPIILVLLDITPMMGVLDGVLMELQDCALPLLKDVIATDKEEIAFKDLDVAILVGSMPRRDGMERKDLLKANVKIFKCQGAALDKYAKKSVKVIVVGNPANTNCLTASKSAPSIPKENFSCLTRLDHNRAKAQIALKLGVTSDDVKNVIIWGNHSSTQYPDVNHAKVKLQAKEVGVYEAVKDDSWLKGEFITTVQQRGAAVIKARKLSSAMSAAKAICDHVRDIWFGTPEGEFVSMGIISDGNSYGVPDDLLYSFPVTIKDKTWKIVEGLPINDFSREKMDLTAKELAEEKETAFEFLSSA
Recorded metric: pKi
Here pKi is given on a logarithmic scale as minus log10 of the concentration in mol/L.

In: Fill in reported pKi for this entry: "NC(=O)c1csc([C@H]2O[C@@H](COP(=O)(O)OP(=O)(O)OC[C@H]3O[C@@H](n4cnc5c(N)ncnc54)[C@H](O)[C@@H]3O)[C@H](O)[C@@H]2O)n1"
Out: 4.44

* * *

target: Glutamate dehydrogenase 1, mitochondrial (Bos taurus, UniProt P00366)
Sequence (P00366 whole entry): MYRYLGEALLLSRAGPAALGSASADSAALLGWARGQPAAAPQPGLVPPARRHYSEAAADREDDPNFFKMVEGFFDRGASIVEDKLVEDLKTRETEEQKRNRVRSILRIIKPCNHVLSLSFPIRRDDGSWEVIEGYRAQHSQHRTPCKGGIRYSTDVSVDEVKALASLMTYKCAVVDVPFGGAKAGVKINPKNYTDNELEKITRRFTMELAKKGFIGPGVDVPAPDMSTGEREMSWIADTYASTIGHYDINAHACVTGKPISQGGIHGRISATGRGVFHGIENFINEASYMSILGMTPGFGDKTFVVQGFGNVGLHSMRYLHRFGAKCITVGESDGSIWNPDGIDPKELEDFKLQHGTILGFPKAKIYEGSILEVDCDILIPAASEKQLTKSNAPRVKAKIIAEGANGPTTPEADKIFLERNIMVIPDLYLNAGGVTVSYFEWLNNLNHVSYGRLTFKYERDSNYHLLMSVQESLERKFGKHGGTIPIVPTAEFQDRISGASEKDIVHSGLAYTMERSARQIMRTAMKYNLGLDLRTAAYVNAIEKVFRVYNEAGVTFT
Recorded metric: Ki

In: Tell me its Ki on Glutamate dehydrogenase 1, mitochondrial (Bos taurus, UniProt P00366): "NC(=O)c1ccc[n+]([C@@H]2O[C@H](COP(=O)([O-])O)[C@@H](O)[C@H]2O)c1"
Out: > 10 mM
